Every entry's value here was drawn from patent US20140107021A1.

# measurementTarget: glucagon receptor (Homo sapiens)
# Sequence (P47871 26-477): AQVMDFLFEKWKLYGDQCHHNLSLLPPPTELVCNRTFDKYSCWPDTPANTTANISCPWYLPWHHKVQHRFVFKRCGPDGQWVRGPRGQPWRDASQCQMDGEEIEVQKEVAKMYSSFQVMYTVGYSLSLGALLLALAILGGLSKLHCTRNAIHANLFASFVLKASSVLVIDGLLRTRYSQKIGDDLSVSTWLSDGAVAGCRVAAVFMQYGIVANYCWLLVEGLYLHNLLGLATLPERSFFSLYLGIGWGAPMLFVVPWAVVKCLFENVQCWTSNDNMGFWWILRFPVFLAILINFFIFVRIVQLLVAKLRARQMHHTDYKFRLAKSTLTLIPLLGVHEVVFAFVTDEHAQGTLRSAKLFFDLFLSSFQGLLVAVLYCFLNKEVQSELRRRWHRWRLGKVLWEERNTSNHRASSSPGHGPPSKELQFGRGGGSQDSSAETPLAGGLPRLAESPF
# methodDescription: cAMP induction at the glucagon receptor (agonist activity), luciferase reporter assay in HEK293 cells
# Type: cell-based
# Parameters: expressed in transfected cells; host or cells: HEK293
# conditionInfo: Table 9
Square brackets hold non-standard residues; d marks the D form. Ends that are not written are not given here. * marks the point of attachment. PEG 40 kDa = PEG of 40 kDa covalently attached to Cys; C16 acyl = 16 carbon fatty acyl group; Myristoyl = CCCCCCCCCCCCCC(=O)*; Aib = CC(C)(N)C(=O)O
Reported % Relative Activity at GR is given for each of the following substances.
Please give a number only; it is taken to be in %.

Below are worked cases with known answers.
E3C24-PEG-K10-C14 (Y[Aib]EGTFTSDK(Myristoyl)SIYLDKQAA[Aib]EFVC(PEG 40 kDa)WLLAGGPSSGAPPPS-NH2) [MT-341] : 0.01
K40-C16 (Y[Aib]QGTFTSDYSIYLDKQAA[Aib]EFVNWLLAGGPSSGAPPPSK(C16 acyl)-NH2) [MT-278] : 588.4
E3C24-PEG-K40-C14 (Y[Aib]EGTFTSDYSIYLDKQAA[Aib]EFVC(PEG 40 kDa)WLLAGGPSSGAPPPSK(Myristoyl)-NH2) [MT-353] : 0.17

Next substance, please.
[Q] Recorded % Relative Activity at GR of E3K16AIB2,20K10(C16) (Y[Aib]EGTFTSDK(C16 acyl)SIYLDKQAA[Aib]EFVNWLLAGGPSSGAPPPS-NH2) [MT-270] , please.
[A] 0.06
